- TGT: Rat recombinant PDE10A (rPDE10A2) (Rattus norvegicus)
- Construct: made in house; host or cells: Sf9 insect cells (baculovirus)
- Sequence (Q9QYJ6 1-794): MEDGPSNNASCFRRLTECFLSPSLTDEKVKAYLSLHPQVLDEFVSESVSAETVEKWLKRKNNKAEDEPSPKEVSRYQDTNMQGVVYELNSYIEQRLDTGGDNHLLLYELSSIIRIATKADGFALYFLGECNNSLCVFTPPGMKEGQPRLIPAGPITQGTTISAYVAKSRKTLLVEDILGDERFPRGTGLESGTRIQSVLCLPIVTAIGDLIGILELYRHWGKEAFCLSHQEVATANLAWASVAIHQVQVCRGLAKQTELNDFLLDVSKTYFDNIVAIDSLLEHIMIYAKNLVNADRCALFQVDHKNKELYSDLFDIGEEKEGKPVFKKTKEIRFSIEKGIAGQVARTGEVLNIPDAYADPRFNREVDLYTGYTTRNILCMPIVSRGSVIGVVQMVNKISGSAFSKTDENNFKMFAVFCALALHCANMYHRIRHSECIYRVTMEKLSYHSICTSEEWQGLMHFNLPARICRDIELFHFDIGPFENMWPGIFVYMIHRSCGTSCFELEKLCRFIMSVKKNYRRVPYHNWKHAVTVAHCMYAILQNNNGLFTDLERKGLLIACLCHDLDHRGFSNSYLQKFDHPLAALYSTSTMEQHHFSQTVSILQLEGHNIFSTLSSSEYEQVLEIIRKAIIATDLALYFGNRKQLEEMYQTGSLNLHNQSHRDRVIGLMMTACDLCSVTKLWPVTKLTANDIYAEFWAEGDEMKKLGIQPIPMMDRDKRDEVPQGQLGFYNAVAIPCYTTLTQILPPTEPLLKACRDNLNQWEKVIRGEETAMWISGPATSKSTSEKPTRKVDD
- ASSAY PROTOCOL: In vitro assay PDE10A (SPA, 3H-cAMP)
- Assay type: biochemical
- ASSAY CONDITIONS: read-out: PIC50 PDE10 (converted)
Lab note: compare IC50 with 300 nM, writing YES if less and NO if equal or more.

1) Cc1nc2cc(Br)ccc2n2c(-c3ccccc3Cl)nnc12    YES
2) Cc1nc2ccc(N3CCN(C)CC3)cc2n2c(-c3cc(OC(C)C)ccc3Cl)nnc12    NO
3) CCNC(=O)c1ccc2c(c1)nc(C)c1nnc(-c3cccnc3OC)n12    NO
4) Cc1nc2ccc(CN3CCOC(CCO)C3)cc2n2c(-c3ccccc3Cl)nnc12 (stereo not drawn)    YES
5) Cc1nc2ccc(C(=O)NCCO)cc2n2c(-c3ccccc3Cl)nnc12    YES
6) Cc1nc2ccc(Br)cc2n2c(-c3ccccc3OC(F)(F)F)nnc12    NO
